Reported TGI values are given for each entry in this list.
System: UO-31 renal
protocol: NCI tumour cell line growth inhibition, 48 h

Some compounds with known TGI results, for comparison:
Kindly note the recorded TGI for `Cc1nn(C(=O)CC(=O)Nc2ccccc2Cl)c(C)c1N=Nc1ccccc1Cl` , which is > 100 µM

Memo: CC(C)(O)C1CC(=O)C(C)(C2C(O)CC3(C)C4CC=C5C(CCC(O)C5(C)C)C4(C)C(=O)CC23C)O1 (stereo unspecified) , reported TGI: > 100 µM

Kindly note the recorded TGI for `COc1cc(NS(C)(=O)=O)ccc1N1Cc2cnc3ccc4[nH]ccc1c4c23` , which is > 100 µM

Query Cc1ccc(S(=O)(=O)NC2(C=O)CCC(C(C)(C)C)CC2)cc1 (stereo unspecified) yields TGI of > 100 µM

TGI reading for `O=C(/C=C/CN1CCCCC1)Nc1cc2c(Nc3ccc(F)c(Cl)c3F)ncnc2cc1OCCOC(F)F` : 5.89 µM

`O=C(CSCC(=O)N/N=C\c1cc(Br)cc(Br)c1O)N/N=C\c1cc(Br)cc(Br)c1O` has a reported TGI of 49.6 µM

For reference, reported TGI for `O=C(Cc1nc2ccccc2s1)C(=O)Nc1ccccc1C(F)(F)F` stands at > 100 µM

TGI reported for this compound CCCCCCn1c(=N)n(CC(O)COc2cccc(C)c2)c2ccccc21 (stereo unspecified) : 15.4 µM

Form field TGI, entry CCCCCC1C2C(=O)NC(=O)C1C(=O)NC2=O (stereo unspecified) : > 100 µM

GET /value?item= `CCCCCC(=O)OC[n+]1ccc2c(C)c3[nH]c4ccccc4c3c(C)c2c1` &field=TGI returns 13 µM

// switching to the query compound
Notebook: NC(=O)NOCC1NC(=O)NC1=O (stereo unspecified) , TGI read as > 100 µM
